System: Cryptococcus neoformans
Test: Antifungal activity against Cryptococcus neoformans ATCC 32719 assessed as inhibition of cell wall synthesis incubated for 24 hrs in presence of sorbitol
Type: functional
Measured Property: MIC
A complete answer gives the number and then names the unit.

Compound | MIC
NC(=O)OC[C@H](O)[C@@H](O)[C@H](N)C(=O)N[C@H](C(=O)O)[C@H]1O[C@@H](n2cc(CO)c(=O)[nH]c2=O)[C@H](O)[C@@H]1O | 64 µg/mL
O=C(/C=C/C(=O)Nc1ccc(Cl)cc1Cl)Nc1ccc2c(c1)C(=O)NC1(CCSC1)N2 (stereo unspecified) | 128 µg/mL
Cc1ccc([N+](=O)[O-])cc1NC(=O)/C=C/C(=O)Nc1ccc2c(c1)C(=O)NC1(CCSC1)N2 (stereo unspecified) | 128 µg/mL
O=C(/C=C/C(=O)Nc1ccccc1[N+](=O)[O-])Nc1ccc2c(c1)C(=O)NC1(CCSC1)N2 (stereo unspecified) | 128 µg/mL
O=C(/C=C/C(=O)Nc1ccc2c(c1)C(=O)NC1(CCSC1)N2)Nc1ccc(Br)cc1 (stereo unspecified) | 128 µg/mL

Item: O=C(/C=C/C(=O)Nc1ccc2c(c1)C(=O)NC1(CCSC1)N2)Nc1ccc([N+](=O)[O-])cc1 (stereo unspecified) | MIC: 32 µg/mL
